A collection of molecules and their measured CC50 at 6 days
- Measurement Description: Cytotoxicity determination in HepG2.2.15 cells (CCK-8)
- Assay type: cell-based
- Condition Set: human, 6 days of compound treatment, CCK-8, highest concentration 100 μM
Parameter: CC50 at 6 days (µM)

- Molecule: "COC(=O)C1=C([C@H]2CC[C@H](S(=O)(=O)NCCC(C)(C)O)CC2)NC(c2nccs2)=NC1c1ccc(F)c(F)c1Cl (stereo partly drawn) [Compound 358B]"
  Parameter: "CC50 at 6 days"
  Units Label: "µM"
  Observed Result: 12.5
- Molecule: "CCOC(=O)C1=C(C2CCN(S(=O)(=O)c3cnn(CCCCCC(=O)O)c3)CC2)NC(c2nccs2)=NC1c1ccc(F)c(F)c1Cl (stereo not drawn)"
  Parameter: "CC50 at 6 days"
  Units Label: "µM"
  Observed Result: 6.6
- Molecule: "COC(=O)C1=C([C@H]2CC[C@H](N(C)S(C)(=O)=O)CC2)NC(c2nccs2)=NC1c1ccc(F)cc1Cl (single isomer, unassigned) [Compound 388B]"
  Parameter: "CC50 at 6 days"
  Units Label: "µM"
  Observed Result: 27.8
- Molecule: "COC[C@@H](O)CN([C@H]1CC[C@H](C2=C(C(=O)OC)C(c3ccc(F)c(F)c3Cl)N=C(c3nccs3)N2)CC1)S(C)(=O)=O (single isomer, unassigned) [Compound 245D]"
  Parameter: "CC50 at 6 days"
  Units Label: "µM"
  Observed Result: 12.5
- Molecule: "COC(=O)C1=C(C2CCN(S(=O)(=O)CC(=O)O)CC2)NC(c2nccs2)=NC1c1ccc(F)cc1Cl (stereo not drawn)"
  Parameter: "CC50 at 6 days"
  Units Label: "µM"
  Observed Result: 51.4
- Molecule: "COC(=O)C1=C(C2CCN(S(=O)(=O)C3CC(O)C3)CC2)NC(c2nccs2)=NC1c1ccc(F)cc1Cl (single isomer, unassigned) [Compound 335A]"
  Parameter: "CC50 at 6 days"
  Units Label: "µM"
  Observed Result: 12.2

---

A collection of compounds and their measured CC50 at 6 days
- Measurement Description: Cytotoxicity determination in HepG2.2.15 cells (CCK-8)
- Format: cell-based
- Condition Set: human, 6 days of compound treatment, CCK-8, highest concentration 100 μM
Parameter: CC50 at 6 days (µM)

- Compound: "COC(=O)C1=C([C@H]2CC[C@H](N(CC#N)S(C)(=O)=O)CC2)NC(c2nccs2)=NC1c1ccc(F)cc1Cl (single isomer, unassigned) [Compound 448A]"
  Parameter: "CC50 at 6 days"
  Reported Relation: ">"
  Observed Result: 100
- Compound: "CCOC(=O)C1=C([C@H]2CC[C@H](C(=O)O)CC2)NC(c2nccs2)=NC1c1ccc(F)cc1Br (stereo partly drawn) [Compound 156]"
  Parameter: "CC50 at 6 days"
  Reported Relation: "="
  Observed Result: 34.9
- Compound: "COCCS(=O)(=O)N1CCC(C2=C(C(=O)OC)C(c3ccc(F)cc3Cl)N=C(c3nccs3)N2)CC1 (stereo not drawn) [Compound 215]"
  Parameter: "CC50 at 6 days"
  Reported Relation: "="
  Observed Result: 52.7
- Compound: "COC(=O)C1=C([C@H]2CC[C@H](N(CCO)CC(F)(F)F)CC2)NC(c2nccs2)=NC1c1ccc(F)c(F)c1Cl (single isomer, unassigned) [Compound 434B]"
  Parameter: "CC50 at 6 days"
  Reported Relation: "="
  Observed Result: 6.8
- Compound: "COC(=O)C1=C(C2CCN(S(=O)(=O)[C@H]3C[C@H](C(=O)O)C3)CC2)NC(c2nccs2)=NC1c1ccc(F)c(F)c1C (stereo partly drawn) [Compound 309C]"
  Parameter: "CC50 at 6 days"
  Reported Relation: "="
  Observed Result: 36.2
- Compound: "COC(=O)C1=C(C2CCN(S(=O)(=O)CCC(=O)O)CC2)NC(c2nccs2)=NC1c1cccc(F)c1Cl (stereo not drawn) [Compound 114]"
  Parameter: "CC50 at 6 days"
  Reported Relation: "="
  Observed Result: 27.5
